Target: purified wild type MGL (wt-MGLL 6H-11-313) (Homo sapiens)
Sequence (Q99685 1-303): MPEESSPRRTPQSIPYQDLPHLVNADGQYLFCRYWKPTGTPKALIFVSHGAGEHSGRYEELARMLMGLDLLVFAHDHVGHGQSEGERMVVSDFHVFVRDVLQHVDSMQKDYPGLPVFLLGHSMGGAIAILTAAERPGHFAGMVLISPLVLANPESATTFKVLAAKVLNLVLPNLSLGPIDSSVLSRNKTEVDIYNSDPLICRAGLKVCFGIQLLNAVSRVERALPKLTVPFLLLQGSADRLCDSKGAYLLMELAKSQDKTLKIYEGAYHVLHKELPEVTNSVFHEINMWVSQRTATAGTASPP
pIC50: −log10 of the molar value.

SUBSTANCE_SMILES | pIC50
O=C(c1ccc2[nH]c(C3CCCCC3)nc2c1)N1CC(N2CCN(C(=O)c3cscn3)CC2)C1 | 5.77
O=C(c1ccc2c(c1)CCN2c1ccc(F)cc1)N1CC(N2CCN(C(=O)c3ccc[nH]3)CC2)C1 | 7.92
COc1ccc2c(C)c(C(=O)N3CC(N4CCN(C(=O)c5nccs5)CC4)C3)oc2c1 | 6.76
COc1cc(C(=O)N2CC(N3CCN(C(=O)c4cscn4)CC3)C2)ccc1-c1ccccc1 | 6.14

====

As shown below, each of these compounds has a reported 2-AG accumulation, % of vehicle control at 1 µM value.
biological target: MGL (Rattus norvegicus, UniProt Q8R431); construct: one g rat brain was homogenized using a Polytron homogenizer; from tissue; host or cells: rat brain homogenate; assay: 2-AG accumulation assay in rat brain homogenate; type: biochemical; conditions: rat brain homogenate; compound 1 μM; 2-AG accumulation as percent of vehicle; read-out: Rat Brain 2AG % VehCntrl (%) @ 1 μM
OBSERVABLE: 2-AG accumulation, % of vehicle control at 1 µM (%)

SUBSTANCE_SMILES | QUANTITATIVE_READOUT
O=C(c1ccc(-n2nc3c(c2-c2cccc(C(F)(F)F)c2)CCC3)cc1)N1CC(N2CCN(C(=O)c3nccs3)CC2)C1 | 589
O=C(c1nccs1)N1CCN(C2CN(C(=O)c3sc4ccc(-c5ccccc5)cc4c3F)C2)CC1 | 486
O=C(c1ccc(N2CCCC2)cc1)N1CC(N2CCN(C(=O)c3nccs3)CC2)C1 | 583
COc1cc(C(=O)N2CC(N3CCN(C(=O)c4cscn4)CC3)C2)ccc1-c1ccc(F)c(Cl)c1 | 525
O=C(c1cc2cc(-c3cccc(C(F)(F)F)c3)ccc2o1)N1CC(N2CCN(C(=O)c3nccs3)CC2)C1 | 838
O=C(c1nccs1)N1CCN(C2CN(C(=O)c3sc4c(F)c(C(F)(F)F)ccc4c3Cl)C2)CC1 | 960
O=C(c1ccccc1)N1CCN(C2CN(C(=O)c3ccc(-c4cccc(C(F)(F)F)c4)cc3)C2)CC1 | 260
O=C(c1cscn1)N1CCN(C2CN(C(=O)c3ccc(-c4ccccc4)cc3F)C2)CC1 | 204

====

Molecular target: MGL (Rattus norvegicus)
Construct: one g rat brain was homogenized using a Polytron homogenizer; from tissue; host or cells: rat brain homogenate
Sequence (Q8R431 1-303): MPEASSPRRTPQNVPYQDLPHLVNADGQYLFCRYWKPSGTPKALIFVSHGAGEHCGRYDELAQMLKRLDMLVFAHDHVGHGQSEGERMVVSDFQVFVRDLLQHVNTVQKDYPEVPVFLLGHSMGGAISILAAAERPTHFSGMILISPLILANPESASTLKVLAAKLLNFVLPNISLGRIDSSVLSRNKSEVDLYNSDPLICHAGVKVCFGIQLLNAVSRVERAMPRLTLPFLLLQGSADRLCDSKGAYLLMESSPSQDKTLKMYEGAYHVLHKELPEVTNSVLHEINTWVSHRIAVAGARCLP
Assay: 2-AG accumulation assay in rat brain homogenate
Assay type: biochemical
Settings: rat brain homogenate; compound 1 μM; 2-AG accumulation as percent of vehicle; read-out: Rat Brain 2AG % VehCntrl (%) @ 1 μM
OBSERVABLE: 2-AG accumulation, % of vehicle control at 1 µM (%)

SUBSTANCE_SMILES | QUANTITATIVE_READOUT
O=C(c1ccccc1)N1CCN(C2CN(C(=O)c3ccc(-c4ccc(Cl)c(C(F)(F)F)c4)cc3)C2)CC1 | 152
O=C(c1ccc2c(ccn2-c2ccc(OC(F)(F)F)cc2)c1)N1CC(N2CCN(C(=O)c3cscn3)CC2)C1 | 773
O=C(c1ccc(Oc2cccc(C(F)(F)F)c2)nc1)N1CC(N2CCN(C(=O)c3cscn3)CC2)C1 | 136
O=C(c1csc(-c2cc(Cl)cc(Cl)c2)n1)N1CC(N2CCN(C(=O)c3nccs3)CC2)C1 | 126
